Cited source for all entries: patent US8765783B2

target_desc: human EDG-3 (Homo sapiens, UniProt Q99500)
Sequence (Q99500 whole entry): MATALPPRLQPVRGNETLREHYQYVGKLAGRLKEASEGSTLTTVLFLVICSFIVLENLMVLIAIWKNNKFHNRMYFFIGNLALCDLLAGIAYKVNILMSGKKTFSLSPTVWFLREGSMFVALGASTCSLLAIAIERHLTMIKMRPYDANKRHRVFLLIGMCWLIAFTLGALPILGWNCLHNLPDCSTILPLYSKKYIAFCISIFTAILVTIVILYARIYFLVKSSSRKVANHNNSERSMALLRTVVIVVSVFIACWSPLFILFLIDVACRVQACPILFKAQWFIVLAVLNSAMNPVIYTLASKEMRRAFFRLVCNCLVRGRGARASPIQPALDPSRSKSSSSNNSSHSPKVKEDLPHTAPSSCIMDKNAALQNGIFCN
experimental_details: Antagonist evaluation for EDG-3, intracellular calcium ion
condition_context: cells overexpressing human EDG-3
pIC50: −log10 of the molar value.
Task for the reader: assign each of the following compounds its reported pIC50.

Query :: Fill in: pIC50 of O=C(Nc1cccc(C(F)(F)F)c1)N1CCC(O)(c2ccc(Br)cc2)CC1 [compound (2)] is ___
Result :: < 5.00

Query :: Dear colleague, I am looking for the recorded pIC50 of the following compound: Cc1nn(C)c2nc(NNC(=O)Nc3c(Cl)cncc3Cl)cc(C(C)C)c12 [compound (1)]
Result :: < 5.00

----------
target_desc: human EDG-5 (Homo sapiens, UniProt O95136)
Sequence (O95136 whole entry): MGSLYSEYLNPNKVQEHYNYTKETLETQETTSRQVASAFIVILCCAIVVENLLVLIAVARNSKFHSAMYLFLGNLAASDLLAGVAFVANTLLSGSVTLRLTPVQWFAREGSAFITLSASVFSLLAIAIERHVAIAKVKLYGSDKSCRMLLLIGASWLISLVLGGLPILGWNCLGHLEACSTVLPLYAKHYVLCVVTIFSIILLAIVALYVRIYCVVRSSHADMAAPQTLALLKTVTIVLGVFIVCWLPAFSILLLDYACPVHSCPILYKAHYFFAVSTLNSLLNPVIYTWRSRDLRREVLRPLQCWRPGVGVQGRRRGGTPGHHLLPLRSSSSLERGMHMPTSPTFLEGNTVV
experimental_details: Antagonistic activity for EDG-5 by monitoring concentration change of intracellular calcium ion
condition_context: CHO cells overexpressing human EDG-5; S1P 100 nM
Exercise: state measured pIC50 for each of the compounds provided.
Value format note: pIC50 is -log10 of concentration (mol/L); just state the number.

Query :: Query (compound): Cc1nn(C)c2nc(NNC(=O)Nc3c(Cl)cncc3Cl)cc(C(C)C)c12 ; field requested: pIC50
Result :: 6.30

Query :: May I ask what pIC50 has been recorded for O=C(Nc1cccc(C(F)(F)F)c1)N1CCC(O)(c2ccc(Br)cc2)CC1 ?
Result :: 6.40
